- Tested on: RT4 human bladder cancer cells
- Test Summary: In vitro viability (MTT) of CTRL versus PD-L1^KO RT4 cells
- Assay type: cell-based
- Test Context: monotherapy
Property Measured: sensitivity of PD-L1^KO versus control RT4 cells to the agent

Lookup: Can you share its sensitivity of PD-L1^KO versus control RT4 cells to the agent? I mean this compound: O=C(c1cc(Cc2n[nH]c(=O)c3ccccc23)ccc1F)N1CCN(C(=O)C2CC2)CC1 [olaparib]
Found: Minimal effects

Lookup: Please do the same for CN(C)CCCOc1ccc(-c2ccc3ncc4c(c3c2)n(C2CCOCC2)c(=O)n4C)cn1 [AZD0156] as well.
Found: Minimal effects

Cited source for all entries: patent US12404332B2
